assay: Cytotoxicity against African green monkey 37RC cells incubated for 8 hrs measured after 6 hrs by neutral red assay; assay type: cell-based; settings: chlorocebus aethiops, read-out: LC50
measured quantity: CC50 at 8 h

Previously resolved entries follow.
CC(C)(C)OC(=O)N[C@@H](CS[C@@H]1CC(=O)/C(=C/c2ccccc2)[C@H]1NC(=O)OC(C)(C)C)C(=O)O    25 µM
CCOC(=O)NC1C=CC(=O)C1 (stereo unspecified)    104 µM
CC(C)/C=C1/C(=O)C=C[C@@H]1NC(=O)OC(C)(C)C    4 µM
CCOC(=O)N(C(=O)OC(C)(C)C)C1C=CC(=O)C1 (stereo unspecified)    233 µM
CC(C)/C=C1/C(=O)C=CC1NC(=O)OC(C)(C)C (stereo unspecified)    4 µM
O=C1C[C@@H](NC(=O)Oc2ccccc2)[C@H](Sc2ccc3ccccc3c2)C1    113 µM
O=C1C=CC(NC(=O)CCl)C1 (stereo unspecified)    79 µM
COC(=O)[C@H](CS[C@@H]1CC(=O)C[C@H]1NC(=O)Oc1ccccc1)NC(=O)OC(C)(C)C    76 µM

Count: 4. Required value per item: CC50 at 8 h.
1. CC(C)/C=C1\C(=O)C=CC1NC(=O)c1ccccc1 (stereo unspecified)
2. O=C1C=CC(NC(=O)Oc2ccccc2)C1 (stereo unspecified)
3. CC(C)/C=C1/C(=O)C=C[C@H]1NC(=O)OC(C)(C)C
4. CC(C)(C)OC(=O)NC1C=CC(=O)/C1=C/c1ccccc1 (stereo unspecified)

OUTPUT:
4 µM
74 µM
4 µM
33 µM

Value sought for every listed compound: CC50 at 8 h.
1. O=C1C[C@H](Sc2ccc3ccccc3c2)[C@H](NC(=O)Oc2ccccc2)C1
2. Cc1cc(C)c(/C=C2/C(=O)C=C[C@@H]2NC(=O)OC(C)(C)C)c(C)c1

OUTPUT:
1. 183 µM
2. 25 µM

Batch request: CC50 at 8 h for each of the following compounds.
1. CC(C)(C)OC(=O)NC1C=CC(=O)/C1=C/c1ccc(Cl)cc1 (stereo unspecified)
2. O=C1C=CC(NC(=O)c2ccccc2)C1 (stereo unspecified)

OUTPUT:
1: 3.4 to 72 µM; 2: 59 µM

* * *

assay: Cytotoxicity against human HeLa cells incubated for 8 hrs measured after 6 hrs by Alamar blue assay; format: cell-based; settings: read-out: LC50
Field: CC50 at 8 h. Provide a value for each of the molecules that follow.
Numbers only, in µM.

// known answers, use as guide
CCCCC1C=CC(=O)/C1=C/C(C)C (configuration not stated)    506
CCCCCC/C=C1/C(=O)C=CC1C (configuration not stated)    234

# context switch: different molecule, same CC50 at 8 h
Input CCCCC1C=CC(=O)/C1=C/CC(C)C (configuration not stated) . Output CC50 at 8 h: 227

* * *

experiment: Cytotoxicity against human HeLa cells incubated for 8 hrs measured after 6 hrs by Alamar blue assay; format: cell-based; details: read-out: LC50
measured quantity: CC50 at 8 h

Before answering, review these 3 worked examples.
CC(C)(C)OC(=O)NC1C=CC(=O)/C1=C/c1ccccc1 (stereo unspecified)    > 800 µM
CC(C)/C=C1\C(=O)C=CC1NC(=O)c1ccccc1 (stereo unspecified)    50 µM
CC(C)/C=C1/C(=O)C=C[C@H]1NC(=O)OC(C)(C)C    > 800 µM

Please report CC50 at 8 h for every entry that follows.
1. C[C@H]1C=CC(=O)/C1=C/c1ccc([N+](=O)[O-])cc1
2. CC(C)(C)OC(=O)NC1C=CC(=O)/C1=C/c1ccc(Cl)cc1 (stereo unspecified)
3. Cc1ccc(S(=O)(=O)NC(=O)OC2C=CC(=O)C2)cc1 (stereo unspecified)

OUTPUT:
1. > 800 µM
2. > 800 µM
3. > 800 µM

* * *

biological target: Heat shock factor protein (Homo sapiens) (UniProt Q00613+Q03933+Q9ULV5); experiment: Activation of HSF in human HeLa cell clone 13B after 8 hrs by luciferase reporter gene assay; format: cell-based
Rule: AC200 below 20 µM gives Y. Equal to or above 20 µM gives N.

Before answering, review these 8 worked examples.
O=C1C=CC(NC(=O)CCl)C1 (stereo not drawn)    Y
CCCCC1C=CC(=O)/C1=C/C(C)C (stereo not drawn)    Y
CCOC(=O)N(C(=O)OC(C)(C)C)C1C=CC(=O)C1 (stereo not drawn)    Y
CC(C)(C)OC(=O)NC1C=CC(=O)C1 (stereo not drawn)    N
C[C@H]1C=CC(=O)/C1=C/c1ccc([N+](=O)[O-])cc1    Y
O=C1C=CC(NC(=O)c2ccccc2)C1 (stereo not drawn)    N
Cc1cc(C)c(/C=C2/C(=O)C=C[C@@H]2NC(=O)OC(C)(C)C)c(C)c1    Y
CCCCC1C=CC(=O)/C1=C/C1CC1 (stereo not drawn)    Y

INPUT: # check: AC200 < 20 µM for CCCCC/C=C1/C(=O)C=CC1C (stereo not drawn)
OUTPUT: N

INPUT: Answer whether the compound "CC(C)/C=C1/C(=O)C=C[C@@H]1NC(=O)OC(C)(C)C" has AC200 strictly less than 20 µM
OUTPUT: Y

INPUT: Does the reported AC200 of "CC(C)/C=C1/C(=O)C=C[C@H]1NC(=O)OC(C)(C)C" stay below 20 µM?
OUTPUT: Y

INPUT: Say whether its AC200 is strictly beneath 20 µM. Entry: CC(C)/C=C1\C(=O)C=CC1NC(=O)c1ccccc1 (stereo not drawn)
OUTPUT: Y

INPUT: Say whether its AC200 is strictly beneath 20 µM. Entry: O=C1C=CC(Nc2ccccc2)C1 (stereo not drawn)
OUTPUT: N

* * *

assay: Cytotoxicity against human HeLa cells incubated for 8 hrs measured after 6 hrs by Alamar blue assay; type: cell-based; settings: read-out: LC50
So I've got a bunch of molecules here, and I need their CC50 at 8 h values.

CCCCC/C=C1/C(=O)C=CC1C (stereo unspecified)    > 800 µM
CC(C)(C)OC(=O)NC1C=CC(=O)C1 (stereo unspecified)    > 800 µM
O=C1C=CC(Nc2ccccc2)C1 (stereo unspecified)    > 800 µM
O=C1C=CC(NC(=O)c2ccccc2)C1 (stereo unspecified)    > 800 µM
CCCCC1C=CC(=O)/C1=C/C1CC1 (stereo unspecified)    239 µM

Consider the additional molecule presented here.
The molecule identified as CC1C=CC(=O)/C1=C/c1ccccc1 (stereo unspecified) registered its CC50 at 8 h at 314 µM
